Data origin: patent US20140163083A1

Test: Saturated solution of the maleate salt (Funke et al., literature)
Assay type: physicochemical
Conditions: water, thermodynamic from solid; translated from saturated solution of the maleate at 23° C., pH=4.4; read-out: free base solubility
Structures can show the parent of a compound that is named as a salt.
Measured Quantity: solubility

- Compound: "CN1C[C@@H]2c3ccccc3Oc3ccc(Cl)cc3[C@H]2C1 (relative stereo) [maleate salt of Asenapine]"
  Measurement: "~4100 µg/mL"
